The reported numbers originate from the supplement of paper PMC8967900.

- Tested on: KOPN-8;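 note: ALL cell lines in 384-well plates, five doses spanning 10,000-fold, each plate scaled between vehicle and 100 µmol/L benzalkonium chloride controls, sDSS an adapted area-under-curve metric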
- assay overview: selective drug sensitivity score (sDSS, relative to normal bone marrow) (sDSS (score)); higher = more potent and effective on the cell line relative to normal bone marrow cells
- conditions: 72 h
readout name: selective drug sensitivity score

O=C(Nc1ccc2[nH]nc(-c3ccncc3)c2c1)[C@@H]1CCN(CC(=O)N2CCN(c3ccc(-c4ncccn4)cc3)CC2)C1 (top concentration 10000 nM) = 12.9
Cn1cc(CNCC2CCN(c3ncc(C(=O)NO)cn3)CC2)c2ccccc21 [Quisinostat] (top concentration 1000 nM) = 10.5
C=CC(=O)N1CC/C(=C\c2ccc(F)c([N+](=O)[O-])c2)C(=O)/C(=C/c2ccc(F)c([N+](=O)[O-])c2)C1 [VLX1570] (top concentration 10000 nM) = 3.88
CNC(=O)c1ccc(C)c(-n2c(C)cc(OCc3ccc(F)cc3F)c(Br)c2=O)c1 (top concentration 1000 nM) = 0.7
C=CC(=O)Nc1cc(Nc2nccc(-c3cn(C)c4ccccc34)n2)c(OC)cc1N(C)CCN(C)C [Osimertinib] (top concentration 2500 nM) = -0.82
O=C(/C=C\n1cnc(-c2cc(C(F)(F)F)cc(C(F)(F)F)c2)n1)NNc1cnccn1 [Selinexor] (top concentration 10000 nM) = 17.1
COc1ccc(-c2ccc3c(N4CCOC[C@@H]4C)nc(N4CCOC[C@@H]4C)nc3n2)cc1CO [AZD8055] (top concentration 10000 nM) = 22.6
CCNC(=O)C[C@@H]1N=C(c2ccc(Cl)cc2)c2cc(OC)ccc2-n2c(C)nnc21 [Molibresib] (top concentration 10000 nM) = 10.6
COC(=O)N[C@@H](C)CNc1nccc(-c2cn(C(C)C)nc2-c2cc(Cl)cc(NS(C)(=O)=O)c2F)n1 [Encorafenib] (top concentration 1000 nM) = 16.2
CC(=O)O[C@H]1C(=O)[C@@]2(C)[C@H]([C@H](OC(=O)c3ccccc3)[C@]3(O)C[C@H](OC(=O)[C@H](O)[C@@H](NC(=O)c4ccccc4)c4ccccc4)C(C)=C1C3(C)C)[C@]1(OC(C)=O)CO[C@@H]1C[C@@H]2O [Paclitaxel] (top concentration 1000 nM) = 22.4
CN[C@@H]1C[C@H]2O[C@@](C)([C@@H]1OC)n1c3ccccc3c3c4c(c5c6ccccc6n2c5c31)C(=O)N[C@H]4O [UCN-01] (top concentration 10000 nM) = 10.6
Cn1cc(-c2[nH]c3cc(NC(=O)[C@H](N)C4CCCCC4)cc4c3c2C=NNC4=O)cn1 (top concentration 10000 nM) = 7.38
CN(C(=O)c1ccc(F)cc1C(F)(F)F)C1CCN(c2nnc(-c3ccnn3C)c3ccccc23)CC1 [Taladegib] (top concentration 10000 nM) = 6.68
C[C@H]1C[C@@H](n2c(Nc3ccc(OC(F)(F)F)cc3)nc3cc(CCC(=O)O)ccc32)CC(C)(C)C1 (top concentration 10000 nM) = 0.06
C[C@@H](Nc1cc(F)cc(F)c1)c1cc(C(=O)N(C)C)cc2c(=O)cc(N3CCOCC3)oc12 [AZD-8186] (top concentration 1000 nM) = 3.44
C#Cc1cccc(Nc2ncnc3cc(OCCOC)c(OCCOC)cc23)c1 [Erlotinib] (top concentration 10000 nM) = 7.06
CC(C)[C@H](C(=O)Nc1ccc(C(=O)NO)cc1)c1ccccc1 [AR-42] (top concentration 10000 nM) = 10.6
C=CC(=O)Nc1cccc(Oc2nc(Nc3ccc(N4CCN(C)CC4)cc3)nc3ccsc23)c1 [Olmutinib] (top concentration 1000 nM) = -0.02
CN1CCN(C(=O)c2ccc3cc(CCNc4ncnc5ccc(C#N)cc45)ccc3c2)CC1 [Senexin_B] (top concentration 1000 nM) = -0.6
CNC(=O)[C@@H](NC(=O)[C@H](CC(C)C)[C@H](O)C(=O)NO)C(C)(C)C [Marimastat] (top concentration 10000 nM) = 7.22
CNC(=O)c1cccc(-c2ccc3c(N4CCOC[C@@H]4C)nc(N4CCOC[C@@H]4C)nc3n2)c1 [Vistusertib] (top concentration 10000 nM) = 19.7
